Measured values drawn from ChEMBL document CHEMBL1134259 for this set.

Below is a list of entries, each paired with its recorded pIC50 value.
target.of.assay: Tubulin
procedure.text: Inhibitory concentration required against tubulin polymerization in the antimicrotubule activity test
pIC50: −log10 of the molar value.

Oc1nc(-c2ccccc2F)nc2ccccc12 < 4.40
Oc1nc(-c2ccc3ccccc3c2)nc2ccccc12 < 4.40
COc1cc2nc(-c3ccccc3F)nc(O)c2cc1OC < 4.40
Oc1nc(-c2ccc(F)cc2)nc2ccccc12 < 4.40
COc1cccc(-c2nc(O)c3cc(OC)c(OC)cc3n2)c1 5.19

The recorded pIC50 for Oc1nc(-c2cccc(F)c2)nc2ccccc12 is < 4.40

The recorded pIC50 for COc1cccc(-c2nc(O)c3cc(OC)ccc3n2)c1 is 5.31

The recorded pIC50 for COc1cc2nc(-c3ccc(F)cc3)nc(O)c2cc1OC is < 4.40

The recorded pIC50 for COc1cccc(-c2nc(O)c3ccccc3n2)c1 is 5.07

The recorded pIC50 for COc1cc2nc(-c3ccc4ccccc4c3)nc(O)c2cc1OC is < 4.40

The recorded pIC50 for COc1cc2nc(-c3cccc(F)c3)nc(O)c2cc1OC is < 4.40

----------
System: 1A9
procedure.text: In vitro effective concentration required to reduce the number of human ovarian cancer (1A9) after 3-day incubation
Type: functional
condition.context: 1A9, 72 h, read-out: ED50 (the source's name)
assay.readout: EC50 (µg/mL)

Some solved cases for reference:
COc1cccc(-c2nc(O)c3cc(OC)c(OC)cc3n2)c1 17.5
Oc1nc(-c2ccc3ccccc3c2)nc2ccccc12 8

A = COc1cc2nc(-c3ccc4ccccc4c3)nc(O)c2cc1OC
B = COc1cccc(-c2nc(O)c3cc(OC)ccc3n2)c1
C = COc1cc2nc(-c3ccc(F)cc3)nc(O)c2cc1OC
Query block: Rank ascending by EC50. Reply with the item labels sorted in the order that was asked for.
Result block: B, A, C
(B: 4.7 µg/mL, A: 7.8 µg/mL, C: 16 µg/mL)

----------
Tested on: A549
procedure.text: In vitro effective concentration required to reduce the number of human lung carcinoma (A-549) after 3-day incubation
Type: functional
condition.context: A549, 72 h, read-out: ED50 (the source's name)
assay.readout: EC50 (µg/mL)

Some solved cases for reference:
COc1cc2nc(-c3ccc4ccccc4c3)nc(O)c2cc1OC 8
Oc1nc(-c2cccc(F)c2)nc2ccccc12 9.8

A = Oc1nc(-c2ccc3ccccc3c2)nc2ccccc12
B = Oc1nc(-c2ccc(F)cc2)nc2ccccc12
C = COc1cccc(-c2nc(O)c3cc(OC)ccc3n2)c1
Query block: Rank ascending by EC50. Reply with the item labels sorted in the order that was asked for.
Result block: B, A, C
(B: 7.5 µg/mL, A: 14.4 µg/mL, C: 28.1 µg/mL)

----------
Below is a list of entries, each paired with its recorded EC50 value.
Tested on: A549
procedure.text: In vitro effective concentration required to reduce the number of human lung carcinoma (A-549) after 3-day incubation
Format: functional
condition.context: A549, 72 h, read-out: ED50 (the source's name)

Some solved cases for reference:
COc1cc2nc(-c3cccc(F)c3)nc(O)c2cc1OC > 20 µg/mL
COc1cc2nc(-c3ccc(F)cc3)nc(O)c2cc1OC > 20 µg/mL
COc1cc2nc(-c3ccccc3F)nc(O)c2cc1OC < 5 µg/mL
COc1cccc(-c2nc(O)c3ccccc3n2)c1 > 20 µg/mL

The recorded EC50 for COc1cccc(-c2nc(O)c3cc(OC)c(OC)cc3n2)c1 is > 20 µg/mL
